Consider the following compounds and their measured inhibition readings.
# test name: Mycobacterium tuberculosis H37Rv growth inhibition, putative kinase inhibitor library, confirmatory dose response (AID 2842);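 further: bacteria incubated one week before Alamar blue readout; 0% = bacteria only wells and 100% = bacteria with high antibiotic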
# condition summary: M. tuberculosis H37Rv growth inhibition; active compounds read high
Screen size: about 24,000 compounds; about 1,200 (5%) were called active. Roughly 2% stayed inconclusive and do not appear here. A selection follows.

compound | inhibition, %
CC(=O)N1CCc2c(sc(NC(=O)c3ccc4ccccc4c3)c2C#N)C1 | 13.2
Cc1ccc(C)c(S(=O)(=O)Nc2ccc(C(=O)N3CCOCC3)cc2)c1 | -13.6
O=C(CN1C(=O)CCC1=O)Nc1nc(-c2ccc(Cl)c(Cl)c2)cs1 | 0.41
O=C(Nc1nc2c(cc3c4c(cccc42)CC3)s1)C(c1ccccc1)c1ccccc1 | 10.3
O=C1/C(=C/c2ccc(Br)cc2)Oc2cc(O)ccc21 | 8.31
Cc1ccc(NC(=O)c2oc3ccccc3c2NC(=O)c2ccc([N+](=O)[O-])cc2)cc1 | 3.31
COc1ccc(OCC(=O)N/N=C/c2ccccc2O)cc1 | -13
Cc1nnc(SCCn2c(N3CCN(Cc4ccccc4)CC3)nc3c2c(=O)[nH]c(=O)n3C)s1 | 4.11
O=C(/C=C/c1cccs1)Nc1nncs1 | -2.33
Nc1nc(SCC(=O)Nc2ccc(F)cc2F)[nH]c(=O)c1NC(=O)c1ccc(Br)cc1 | -9.37
COc1ccccc1NC(=O)CCCN1C(=O)c2cccc3cccc(c23)C1=O | 16.8
CCSC1=C(C#N)C(c2ccco2)C(C(=O)Nc2ccccc2OC)=C(C)N1 (configuration not stated) | 13.1
CCN(c1ncnc(N)c1[N+](=O)[O-])C1CCCCC1 | 5.41
CCOc1ccccc1NC(=O)c1oc2ccccc2c1NC(=O)COc1ccccc1 | 10.5
COc1ccc(OC)c(-c2nnc(NC(=O)C(C)Sc3ccccc3)s2)c1 (configuration not stated) | -0.69
CCOc1ccc(C(=O)Nc2c3c(nn2C(C)(C)C)CS(=O)C3)cc1 (configuration not stated) | 6.89
CCOC(=O)c1cnc2ccc(OCC)cc2c1Nc1cccc(Cl)c1C | -5.22
CCOc1cccc2c1OC(c1cccnc1)N1N=C(c3cccc(O)c3)CC21 (configuration not stated) | -10.5
O=C(Nc1nc2c(s1)CCCC2)c1coc2ccccc2c1=O | -2.85
Cc1ccc(-n2c(=O)[nH]c3c(C(N)=O)nc(-c4ccc(C(C)C)cc4)nc32)cc1C | -7.6
C=CCn1c(N(C)C)nc2c1c(=O)[nH]c(=O)n2C | -2.63
COC(=O)c1ccc(NC(=O)CSc2nnc(C)c(=O)n2N)cc1 | 6.15

====

Consider the following compounds and their measured inhibition readings.
# test name: Mycobacterium tuberculosis H37Rv growth inhibition, putative kinase inhibitor library, confirmatory dose response (AID 2842);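 further: bacteria incubated one week before Alamar blue readout; 0% = bacteria only wells and 100% = bacteria with high antibiotic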
# condition summary: M. tuberculosis H37Rv growth inhibition; active compounds read high
The campaign covered roughly 24,000 compounds. About 1,200 (5%) were called active. About 2% were inconclusive and are not listed. Only a sample is shown.

compound | unit symbol | inhibition
CCN1C(=O)C2(C(C#N)=C(N)Oc3c2oc(CO)cc3=O)c2ccccc21 (stereo not given) | % | -2.38
COc1ccc(-n2nc3c(c2NC(=O)Cc2cccs2)CSC3)cc1 | % | -3.68
Cn1c(=O)[nH]c(=O)c2c1nc(SCC(N)=O)n2CC(O)COc1ccc(Cl)cc1 (stereo not given) | % | -5.17
CC1(C)Cc2c(sc(NC(=O)c3cccc(F)c3)c2C#N)C(C)(C)N1 | % | -10.1
O=C1NC(=O)C(=Cc2nc(-c3ccc(Cl)cc3)n3ccccc23)C(=O)N1 | % | 15.3
CC1(C)Cc2c(sc(NC(=O)/C=C/c3ccccc3)c2C#N)C(C)(C)N1 | % | -4.69
COc1cccc(C(=O)COC(=O)c2cc3cc(Br)cc(OC)c3oc2=O)c1 | % | -0.935
Nc1ncnc2c1c1nc3ccccc3nc1n2CCc1ccccc1 | % | -4.35
Cn1c(=O)c2c(nc(SCCN3CCOCC3)n2Cc2ccccc2)n(C)c1=O | % | 0.8
Cc1ccc(Nc2nc(-c3ccc(S(=O)(=O)N4CCC(Cc5ccccc5)CC4)cc3)cs2)cc1 | % | -2.1
